target: Putative nitroreductase (Staphylococcus saprophyticus subsp. saprophyticus (strain ATCC 15305 / DSM20229 / NCIMB 8711 / NCTC 7292 / S-41)); experiment: Binding affinity to Staphylococcus saprophyticus nitroreductase NtrB
Measure: Ki (µM)
Just the number please, in µM, no unit attached.

| Molecule | Ki, µM |
| --- | --- |
| NC(=O)c1cc(N2CC2)c([N+](=O)[O-])cc1[N+](=O)[O-] [TRETAZICAR] | 5.96 |

[in] So what does the record say about Ki for NC(=O)c1cc(N(CCCl)CCCl)c([N+](=O)[O-])cc1[N+](=O)[O-] ?
[out] 7.28

====

molecular target: Putative nitroreductase (Staphylococcus saprophyticus subsp. saprophyticus (strain ATCC 15305 / DSM20229 / NCIMB 8711 / NCTC 7292 / S-41), UniProt Q4A0P1); experiment: Substrate activity at Staphylococcus saprophyticus nitroreductase expressed in Escherichia coli BL21 (DE3) assessed as retention time by HPLC analysis; assay type: ADME
Sequence (Q4A0P1 whole entry): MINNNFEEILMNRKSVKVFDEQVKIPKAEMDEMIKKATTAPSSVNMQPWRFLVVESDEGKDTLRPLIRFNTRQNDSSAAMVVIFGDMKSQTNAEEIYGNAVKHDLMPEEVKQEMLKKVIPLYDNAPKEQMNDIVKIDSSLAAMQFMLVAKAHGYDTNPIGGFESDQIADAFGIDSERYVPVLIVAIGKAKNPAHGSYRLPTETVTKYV
Parameter threshold = 20 min. Response is Y when Retention_time meets or exceeds it, else N.

| Molecule | Discrete label |
| --- | --- |
| O=[N+]([O-])c1ccc(N2CCCC(O)C2)c([N+](=O)[O-])c1 (stereo not given) | N |

[in] Does the molecule O=[N+]([O-])c1cc([N+](=O)[O-])c(Nc2ccc(S(=O)(=O)O)cc2)cc1Nc1ccc(S(=O)(=O)O)cc1 have recorded Retention_time that is 20 min or more?
[out] N

[in] Does the molecule COc1cccc(Nc2ccc([N+](=O)[O-])cc2[N+](=O)[O-])c1 have recorded Retention_time that is 20 min or more?
[out] N

[in] Does the molecule O=[N+]([O-])c1cc([N+](=O)[O-])c(Nc2ccc(O)cc2)cc1Nc1ccc(O)cc1 have recorded Retention_time that is 20 min or more?
[out] Y

[in] Does the molecule CC(C)CC(=O)Nc1cc(N2CCOCC2)c([N+](=O)[O-])cc1[N+](=O)[O-] have recorded Retention_time that is 20 min or more?
[out] Y

====

tested on: HUVEC; experiment: Cytotoxicity against human HUVEC cells assessed as cell viability after 48 hrs by MTT assay; format: cell-based; conditions: Homo sapiens, HUVEC
Measure: IC50 (µM)
Just the number please, in µM, no unit attached.

[in] So what does the record say about IC50 for O=[N+]([O-])c1cc([N+](=O)[O-])c(Nc2ccc(O)cc2)cc1Nc1ccc(O)cc1 ?
[out] 150

====

Measured fold change (FC) values are reported for all entries that follow.
molecular target: Putative nitroreductase (Staphylococcus saprophyticus subsp. saprophyticus (strain ATCC 15305 / DSM20229 / NCIMB 8711 / NCTC 7292 / S-41), UniProt Q4A0P1); assay: Substrate activity at Staphylococcus saprophyticus nitroreductase NtrB assessed as Kcat/Km using NADH as cofactor in Tris-Cl buffer at pH 7.5 by HPLC analysis relative to CB1954/NfsB; format: ADME
The response must contain the number and no unit.

| Structure smiles string | Numeric result |
| --- | --- |
| O=C(CC(F)(F)F)Nc1cc(N2CCOCC2)c([N+](=O)[O-])cc1[N+](=O)[O-] | 4.73 |

Note: attention shifts to another entry.
[in] So what does the record say about fold change (FC) for O=[N+]([O-])c1ccc(N2CCOCC2)c([N+](=O)[O-])c1 ?
[out] 1.25
